Tested on: SW-620 colon
Assay: NCI tumour cell line growth inhibition, 48 h
Where a SMILES comes first, the peptide text is derived from it. The star is where a group is joined. Cbz = O=C(OCc1ccccc1)*
Consider the following compounds; for each one, report its TGI.

Task item: Which TGI is listed for CC(C)(C)OC(=O)NC(Cc1ccc([N+](=O)[O-])cc1)C(=O)NC(CCCCNC(=O)OCc1ccccc1)C(=O)ON1C(=O)CCC1=O (stereo unspecified) ?
Reply: > 100 µM

Task item: Another compound: COc1ccc(/C=C\c2cc(OC)c(OC)c(OC)c2)c(NS(=O)(=O)c2ccc(C)cc2)c1O
Reply: > 100 µM

Task item: Another compound: O=C(O)c1ccccc1/C=N\NC1=NCCN1
Reply: > 100 µM

Task item: Another compound: COc1ccc(C)cc1NC(=S)N/N=C/c1ccc(SC)cc1
Reply: > 100 µM

Task item: Another compound: NNC(=O)c1n[nH]nc1SSc1n[nH]nc1C(=O)NN
Reply: > 100 µM

Task item: Another compound: COc1cc(CC2c3cc(OC)c(OC)cc3CCN2C)c(Oc2cc3c(cc2OC)-c2c(OC)c(OC)c(OC)c4c2C(C3)N(C)CC4)cc1OC (stereo unspecified)
Reply: 30.7 µM

Task item: Another compound: O=C1C(c2ccccc2)=C(c2ccccc2)C(c2ccc(CCCCCCc3ccc(C4=C(c5ccccc5)C(=O)C(c5ccccc5)=C4c4ccccc4)cc3)cc2)=C1c1ccccc1
Reply: > 100 µM

Task item: Another compound: CN(O)C(=O)Cc1ccccc1
Reply: > 100 µM

Task item: Another compound: CCOC(=O)C(C)NC(=O)C(C)NC(=O)C(C)NC(=O)C(C)NC(=O)C(C)NC(=O)C(C)NC(=O)C(C)NC(=O)OCc1ccccc1 (stereo unspecified) (Cbz-AAAAAAA-OEt; configuration not given here)
Reply: > 100 µM

Task item: Another compound: O=[As](O)(O)c1ccc(Cc2ccc([As](=O)(O)O)cc2)cc1
Reply: 2.18 µM

Task item: Another compound: CCN(CC)CCNc1ccc(C)c2sc3ccc(O)cc3c(=O)c12
Reply: 2.38 µM

----------
Tested on: MALME-3M melanoma
Test: NCI tumour cell line growth inhibition, 48 h
Consider the following molecules; for each one, report its GI50.

Task item: Which GI50 is listed for COc1ccc(C(O)c2cc3c(N)c(C(=O)Nc4cccc(Br)c4)sc3nc2C)cc1 (stereo not given) ?
Reply: 799 nM

Task item: Another molecule: CCS/C(Nc1ccccc1)=C(\C#N)C(=O)Nc1ccc(OC)cc1
Reply: 47300 nM

Task item: Another molecule: Cn1ccnc1C(=O)/C=C/c1ccc(C(=O)Nc2nc3ccccc3[nH]2)cc1
Reply: > 25000 nM

Task item: Another molecule: Cn1c(=O)c2[nH]c(COc3ccc(C(C)(C)C)cc3)nc2n(C)c1=O
Reply: 18200 nM

Task item: Another molecule: O=C(CCN1CCCC1)Nc1ccc2c(NCCCc3ccccc3)c3ccccc3nc2c1
Reply: 1580 nM

Task item: Another molecule: Oc1c(CN2CCCC2)cc(COCc2ccccc2)c2cccnc12
Reply: 3350 nM

Task item: Another molecule: O=C(/C=C/c1ccco1)Nc1ncc(Cc2ccc(F)cc2)s1
Reply: 249 nM

Task item: Another molecule: COc1ccc(/C=C2\COc3ccc(-c4ccccc4)cc3C2=O)cc1O
Reply: 1040 nM

Task item: Another molecule: FC(F)(F)c1ccc(-c2cnc(Br)nc2NC2CCCCCC2)cc1
Reply: > 100000 nM

Task item: Another molecule: CCSC1=CC(=O)c2ccccc2C1=O
Reply: 1990 nM

Task item: Another molecule: CCCC[C@@H](COC(=O)N(Cc1cccs1)Cc1cccs1)NC(=O)N[C@@H](CC(=O)OC)c1ccc2c(c1)OCO2
Reply: > 100000 nM

Task item: Another molecule: CN(C)c1ccc(/C=C/c2ccnc3ccccc23)cc1
Reply: 11200 nM

Task item: Another molecule: COc1ccc(-c2ccc(-c3ccc(C(=N)N)cn3)s2)cc1Cl
Reply: 1300 nM

Task item: Another molecule: CC(=O)Oc1c(OC(C)=O)c(-c2ccc(O)c(O)c2)c(O)c(O)c1-c1ccc(O)cc1
Reply: 51300 nM

Task item: Another molecule: COc1ccc(/C=C(\C#N)c2cc3ccccc3n2C)cc1
Reply: 475 nM

----------
Consider the following compounds; for each one, report its TGI.
System: MDA-MB-435
Test: NCI tumour cell line growth inhibition, 48 h
Dear colleague, please return just the value in µM, with no unit written.

Task item: Which TGI is listed for C[C@@H]1CC[C@@]2(OC1)O[C@H]1C[C@H]3[C@@H]4CC=C5C[C@@H](O[C@@H]6O[C@H](CO)[C@@H](O[C@@H]7O[C@@H](CO)[C@H](O)[C@H]7O)[C@H](O)[C@H]6O[C@@H]6O[C@@H](C)[C@H](O)[C@@H](O)[C@H]6O)CC[C@]5(C)[C@H]4CC[C@]3(C)[C@H]1[C@@H]2C ?
Reply: 2.58

Task item: Another compound: COC(=O)C1(Cc2cccc(Cl)c2)CCCCCCN1C(=O)c1ccccc1 (stereo unspecified)
Reply: 51.8

Task item: Another compound: O=Cc1coc2ccccc2c1=O
Reply: 47.9

Task item: Another compound: CCCCCCCCCN1CCC(=O)C(C(=O)OC)C1 (stereo unspecified)
Reply: 28.5

Task item: Another compound: C=C(Cl)C(Cl)(CBr)CCC(Cl)C(C)(C)Cl (stereo unspecified)
Reply: 8.21

Task item: Another compound: COc1ccc(/C=C2\COc3ccc(-c4ccccc4)cc3C2=O)cc1O
Reply: 15.9

Task item: Another compound: CC(C)[Si]1(C(C)C)OCC2OC(n3ccc(=O)[nH]c3=O)C(O)(CO)C2O[Si](C(C)C)(C(C)C)O1 (stereo unspecified)
Reply: 31.6

Task item: Another compound: O=C(/C=C/c1ccc(O)c(O)c1)OCCOC(=O)/C=C/c1ccc(O)c(O)c1
Reply: 98

Task item: Another compound: COc1ccc(/C=C(\C#N)c2cc3ccccc3n2C)cc1
Reply: 0.403

----------
Tested on: SNB-19 CNS
Assay: NCI tumour cell line growth inhibition, 48 h
Consider the following compounds; for each one, report its TGI.

Task item: Which TGI is listed for O=C(CCN1CCCC1)Nc1ccc2c(NCCCc3ccccc3)c3ccccc3nc2c1 ?
Reply: 2 µM

Task item: Another compound: C=C(Cl)C(Cl)(CBr)CCC(Cl)C(C)(C)Cl (centres undefined)
Reply: 7 µM

Task item: Another compound: Cn1c(O)c(C(=O)Nc2ccc([N+](=O)[O-])cc2)c(=O)n(C)c1=S
Reply: 10.1 µM

Task item: Another compound: CSc1c(C#N)c2n(c3ccccc3[n+]2C)c2ncccc12
Reply: > 100 µM

Task item: Another compound: O=C(O)c1ccccc1/C=N\NC1=NCCN1
Reply: > 100 µM

Task item: Another compound: S=C1C=C(c2ccccc2)Sc2ccccc2N1
Reply: > 100 µM

Task item: Another compound: C[N+]1(C)CN(c2ccccc2)C2(CCN(CCCC(=O)c3cccs3)CC2)C1=O
Reply: > 100 µM

Task item: Another compound: CCC(=O)NCCc1c[nH]c2ccc(OC)cc12
Reply: > 100 µM

Task item: Another compound: CC(=O)Oc1c(OC(C)=O)c(-c2ccc(O)c(O)c2)c(O)c(O)c1-c1ccc(O)cc1
Reply: > 100 µM

Task item: Another compound: CC(C)(C)/C(O)=C\c1nc2cc(C(F)(F)F)ccc2[nH]c1=O
Reply: > 100 µM

Task item: Another compound: Oc1c(CN2CCCC2)cc(COCc2ccccc2)c2cccnc12
Reply: 92.4 µM

Task item: Another compound: Cc1ccc(/C=N/Nc2ncccn2)s1
Reply: > 100 µM

Task item: Another compound: CCC1(OC(C)=O)C(=O)OCc2c1cc1n(c2=O)Cc2cc3ccccc3nc2-1 (centres undefined)
Reply: > 100 µM

Task item: Another compound: CN1OC(=O)N(C)C1c1ccccc1 (centres undefined)
Reply: > 100 µM

----------
System: MCF7 breast
Test: NCI tumour cell line growth inhibition, 48 h
Consider the following compounds; for each one, report its TGI.

Task item: Which TGI is listed for NC(CSC(c1ccccc1)(c1ccccc1)c1ccc2ccccc2c1)C(=O)O (centres undefined) ?
Reply: 21.9 µM

Task item: Another compound: C[C@@H]1CCC2[C@@H](C)C(=O)O[C@@H]3C4C[C@@H]1[C@@]23OO[C@@]4(C)O (some centres undefined)
Reply: > 100 µM

Task item: Another compound: CC(C)[Si]1(C(C)C)OCC2OC(n3ccc(=O)[nH]c3=O)C(O)(CO)C2O[Si](C(C)C)(C(C)C)O1 (centres undefined)
Reply: 29.2 µM

Task item: Another compound: CC(=O)OC[C@@]12C[C@H]3C(=O)C(C)(C)C[C@H]3[C@]1(C)[C@@H](OC(C)=O)[C@]1(O)[C@H]([C@@H](OC(=O)c3ccccc3)[C@@H](C)[C@H]1OC(C)=O)[C@H]2OC(C)=O
Reply: > 20 µM

Task item: Another compound: Cc1cc(=Nc2ccc3c(c2)c(N)cc(C)[n+]3C)nc(N)n1C
Reply: > 100 µM

Task item: Another compound: Cc1cccc2c1C(=O)C(C1OC(=O)c3ccccc31)C2 (centres undefined)
Reply: > 100 µM

Task item: Another compound: CC(C)[Si](OC1=CCCCCC12C(=O)N(C)c1ccccc12)(C(C)C)C(C)C (centres undefined)
Reply: 34 µM

Task item: Another compound: CC1(C)CC(=O)c2c(nc3ccc4ccccc4c3c2-c2ccc(NC(=O)CCCCC(=O)Nc3ccc(-c4c5c(nc6ccc7ccccc7c46)CC(C)(C)CC5=O)cc3)cc2)C1
Reply: > 100 µM

Task item: Another compound: O=C(/C=C/c1ccc(Cl)c(Cl)c1)Oc1ccc(/C=C2\CCCCC2=O)cc1
Reply: > 100 µM

Task item: Another compound: COCN1C(=O)[C@@H]2CCCN2C(=O)c2cc([N+](=O)[O-])ccc21
Reply: > 100 µM

Task item: Another compound: CC[C@H](C)[C@H](NC(=O)C12C3C4C1C1C2C3C41NC(C)=O)C(=O)N(C)[C@H](C[C@@H](OC(C)=O)c1nc(C(=O)N[C@@H](Cc2ccccc2)C[C@H](C)C(=O)OC)cs1)C(C)C (some centres undefined)
Reply: > 14.3 µM

Task item: Another compound: CC(C)(C)OC(=O)N1CCC23CCCC2C(=O)CC=C13 (centres undefined)
Reply: > 100 µM

Task item: Another compound: O=C(O)c1ccccc1/C=N\NC1=NCCN1
Reply: > 100 µM

Task item: Another compound: Fc1ccc(-c2ncn(C3CCNCC3)c2-c2ccnc(Oc3cccc(F)c3)n2)cc1
Reply: > 20.4 µM

Task item: Another compound: COc1ccccc1-n1c(SCc2cc(OC)c(OC)c(OC)c2)nc2ccc(Cl)cc2c1=O
Reply: > 100 µM

Task item: Another compound: CCCC[C@@H](COC(=O)N(Cc1cccs1)Cc1cccs1)NC(=O)N[C@@H](CC(=O)OC)c1ccc2c(c1)OCO2
Reply: > 100 µM

Task item: Another compound: O=C(/C=C\c1ccnc2ccccc12)c1ccc([N+](=O)[O-])cc1
Reply: 3.54 µM

Task item: Another compound: CC(C)(C)CC(C)(C)c1ccc(OCCOCCSC(=N)N)cc1
Reply: 3.22 µM

Task item: Another compound: O=Nc1c(O)ccc2ccccc12
Reply: 4.71 µM
